B1: TPR 5TU (parent)
chain: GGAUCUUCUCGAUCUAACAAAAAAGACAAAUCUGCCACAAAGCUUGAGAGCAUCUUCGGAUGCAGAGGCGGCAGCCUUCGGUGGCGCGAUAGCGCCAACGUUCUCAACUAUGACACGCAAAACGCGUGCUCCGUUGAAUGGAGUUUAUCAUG

variants of: B1; experiment: polymerase ribozyme fitness, log enrichment relative to wild type (log ratio); higher = more active; in vitro selection for triplet polymerase activity
Variants at the floor of the assay were thinned out.
measured.attribute: polymerase ribozyme fitness (log ratio)
I'd appreciate a reply containing only the number, no unit.

*Q* So what's the measured polymerase ribozyme fitness (log ratio) for this one? U6G U31C U55A C95U A98G G141C
*A* -1.61

*Q* So what's the measured polymerase ribozyme fitness (log ratio) for this one? C131U U148C
*A* -2.73

*Q* So what's the measured polymerase ribozyme fitness (log ratio) for this one? G80A A98C
*A* -2.19

*Q* So what's the measured polymerase ribozyme fitness (log ratio) for this one? A17G G50U C95U G124C G141A
*A* -0.476

*Q* So what's the measured polymerase ribozyme fitness (log ratio) for this one? C14U G141U
*A* 0.0902

*Q* So what's the measured polymerase ribozyme fitness (log ratio) for this one? U53A C57G C95G
*A* -4.01

*Q* So what's the measured polymerase ribozyme fitness (log ratio) for this one? G83C G92U A137G
*A* -3.45

*Q* So what's the measured polymerase ribozyme fitness (log ratio) for this one? U55C G59A C96A
*A* -3.02

*Q* So what's the measured polymerase ribozyme fitness (log ratio) for this one? G84U U127G
*A* -3.43

*Q* So what's the measured polymerase ribozyme fitness (log ratio) for this one? U6A A106G G117C A147U
*A* -0.278

*Q* So what's the measured polymerase ribozyme fitness (log ratio) for this one? A37C U127G
*A* -3.83

*Q* So what's the measured polymerase ribozyme fitness (log ratio) for this one? A3U A49G
*A* -0.232

*Q* So what's the measured polymerase ribozyme fitness (log ratio) for this one? C10A C87U
*A* -3.47

*Q* So what's the measured polymerase ribozyme fitness (log ratio) for this one? A21G C132G
*A* -3.9

*Q* So what's the measured polymerase ribozyme fitness (log ratio) for this one? C10A C32G C38U U56G A60G C95A C131U G140U
*A* -4.19

*Q* So what's the measured polymerase ribozyme fitness (log ratio) for this one? U55C C72U A150U
*A* 0.059

*Q* So what's the measured polymerase ribozyme fitness (log ratio) for this one? U13A C35U C57U
*A* -1.42

*Q* So what's the measured polymerase ribozyme fitness (log ratio) for this one? G50C A120U A121C
*A* -2.61

*Q* So what's the measured polymerase ribozyme fitness (log ratio) for this one? G58A C79U
*A* -1.65

*Q* So what's the measured polymerase ribozyme fitness (log ratio) for this one? A16C A21U C69U G71A
*A* -1.79

*Q* So what's the measured polymerase ribozyme fitness (log ratio) for this one? A16U C38U C51U A73G G92U G94A A98C U151A
*A* -3.96

*Q* So what's the measured polymerase ribozyme fitness (log ratio) for this one? A3U G92A G136C
*A* -4

*Q* So what's the measured polymerase ribozyme fitness (log ratio) for this one? A52G C93U
*A* -1.74
